Target: Receptor tyrosine-protein kinase erbB-4 (Homo sapiens, UniProt Q15303)
Sequence (Q15303 whole entry, the tested form may be a part): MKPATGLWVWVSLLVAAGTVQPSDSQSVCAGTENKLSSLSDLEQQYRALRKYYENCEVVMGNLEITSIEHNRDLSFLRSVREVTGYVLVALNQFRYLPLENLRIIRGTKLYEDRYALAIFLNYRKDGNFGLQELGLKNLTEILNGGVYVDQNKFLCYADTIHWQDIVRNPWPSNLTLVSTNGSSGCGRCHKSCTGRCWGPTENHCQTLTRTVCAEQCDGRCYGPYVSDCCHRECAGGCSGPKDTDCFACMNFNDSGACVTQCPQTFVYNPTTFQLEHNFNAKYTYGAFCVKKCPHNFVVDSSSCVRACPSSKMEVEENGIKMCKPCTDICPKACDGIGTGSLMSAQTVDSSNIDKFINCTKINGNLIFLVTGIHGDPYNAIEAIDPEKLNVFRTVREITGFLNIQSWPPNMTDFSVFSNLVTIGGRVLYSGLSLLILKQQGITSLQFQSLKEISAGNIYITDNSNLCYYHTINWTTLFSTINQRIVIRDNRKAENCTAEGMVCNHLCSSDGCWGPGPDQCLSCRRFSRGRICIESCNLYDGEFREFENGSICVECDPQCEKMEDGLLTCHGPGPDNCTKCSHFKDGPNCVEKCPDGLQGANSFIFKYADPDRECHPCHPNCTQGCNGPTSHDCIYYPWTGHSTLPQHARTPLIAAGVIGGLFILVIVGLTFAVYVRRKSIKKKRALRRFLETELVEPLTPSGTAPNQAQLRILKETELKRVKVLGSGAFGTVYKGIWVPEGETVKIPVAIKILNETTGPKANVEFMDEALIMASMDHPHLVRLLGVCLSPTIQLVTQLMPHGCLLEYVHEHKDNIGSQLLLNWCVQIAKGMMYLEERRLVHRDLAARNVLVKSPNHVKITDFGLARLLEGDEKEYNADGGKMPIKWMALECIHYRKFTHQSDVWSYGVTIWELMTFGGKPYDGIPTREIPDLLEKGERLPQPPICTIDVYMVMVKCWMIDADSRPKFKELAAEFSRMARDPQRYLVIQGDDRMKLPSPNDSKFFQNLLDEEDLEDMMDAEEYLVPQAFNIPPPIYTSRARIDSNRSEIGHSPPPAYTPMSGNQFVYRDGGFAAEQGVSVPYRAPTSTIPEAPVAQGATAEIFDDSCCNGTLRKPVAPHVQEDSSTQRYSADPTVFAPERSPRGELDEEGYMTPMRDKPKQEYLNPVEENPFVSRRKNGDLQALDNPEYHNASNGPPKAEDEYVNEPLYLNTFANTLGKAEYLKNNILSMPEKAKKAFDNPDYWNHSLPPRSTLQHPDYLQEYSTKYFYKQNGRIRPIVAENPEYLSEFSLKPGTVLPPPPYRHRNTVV
Test: Inhibition of recombinant human N-terminal GST-tagged ERBB4 cytoplasmic domain (708 to 993 residues) expressed in baculovirus by Z'-LYTE assay
pIC50: −log10 of the molar value.
experimental_endpoint: pIC50

- item_smiles: "C=CC(=O)N1CCC[C@@H](n2nc(-c3ccc(OCc4ccccn4)c(Cl)c3)c3c(N)ncnc32)C1"
  experimental_endpoint: "pIC50"
  measured: 8.49

====

Target: Epidermal growth factor receptor (Homo sapiens, UniProt P00533, L858R/T790M)
Sequence (P00533 25-1210 T790M/L858R limits assumed): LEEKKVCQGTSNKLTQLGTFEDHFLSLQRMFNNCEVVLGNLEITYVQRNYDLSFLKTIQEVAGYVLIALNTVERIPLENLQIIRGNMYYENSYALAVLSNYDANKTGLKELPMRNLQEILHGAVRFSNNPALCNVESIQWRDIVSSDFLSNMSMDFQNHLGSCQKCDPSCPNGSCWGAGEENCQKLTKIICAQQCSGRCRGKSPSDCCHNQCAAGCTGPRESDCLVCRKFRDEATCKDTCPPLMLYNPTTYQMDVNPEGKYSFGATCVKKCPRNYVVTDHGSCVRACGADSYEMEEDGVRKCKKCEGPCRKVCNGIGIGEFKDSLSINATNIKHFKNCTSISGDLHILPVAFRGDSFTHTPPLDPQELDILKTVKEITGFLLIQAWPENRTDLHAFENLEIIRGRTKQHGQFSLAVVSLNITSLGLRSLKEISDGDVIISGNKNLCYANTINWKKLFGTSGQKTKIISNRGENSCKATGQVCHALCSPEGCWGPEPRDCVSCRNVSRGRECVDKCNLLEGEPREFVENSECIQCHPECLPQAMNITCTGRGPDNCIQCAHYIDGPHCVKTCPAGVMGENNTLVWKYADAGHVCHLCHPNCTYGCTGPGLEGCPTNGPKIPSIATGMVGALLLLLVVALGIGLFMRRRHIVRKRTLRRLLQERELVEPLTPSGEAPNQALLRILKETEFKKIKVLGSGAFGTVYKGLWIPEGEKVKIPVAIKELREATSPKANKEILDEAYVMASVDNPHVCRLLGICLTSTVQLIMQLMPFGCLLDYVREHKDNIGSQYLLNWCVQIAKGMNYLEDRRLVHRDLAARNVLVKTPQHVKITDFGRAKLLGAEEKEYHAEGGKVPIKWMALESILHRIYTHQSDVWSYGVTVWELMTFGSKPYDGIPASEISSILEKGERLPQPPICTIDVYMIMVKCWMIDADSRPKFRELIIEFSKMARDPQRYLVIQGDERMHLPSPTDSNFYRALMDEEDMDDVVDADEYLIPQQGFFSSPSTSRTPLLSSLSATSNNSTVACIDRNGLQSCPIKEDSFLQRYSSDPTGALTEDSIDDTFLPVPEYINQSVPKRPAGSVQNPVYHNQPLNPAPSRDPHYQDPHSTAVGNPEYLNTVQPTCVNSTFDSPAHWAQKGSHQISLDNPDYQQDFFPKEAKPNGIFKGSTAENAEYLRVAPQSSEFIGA
Assay: Inhibition of EGFR L858R/T790M mutant in human NCI-H1975 cells assessed as reduction in ERK phosphorylation at Thr202/Tyr204 measured after 4 hrs by Western blot analysis
Assay type: cell-based

- item_smiles: "C=CC(=O)N1CCC[C@@H](n2nc(-c3ccc(OCc4ccccn4)c(Cl)c3)c3c(N)ncnc32)C1"
  tgt: "Epidermal growth factor receptor (Homo sapiens, UniProt P00533, L858R/T790M)"
  EC50: "< 10 nM"
